Target: A31 (A*3101) (Homo sapiens, UniProt P04439, A270S/D185E/E176V/E277Q/F33T/G231S/G80R/H175R/I121M/I218V/I322F/K168Q/L300P/L318F/M331R/P217A/Q94H/R138Q/T323A/T345S/T97I/V358M)
Test: biochemical
Assay type: binding
No end group written: not given here.
Readout name: pIC50
Note: pIC50 values are expressed as the negative base-10 logarithm of concentration in M.

[ask] Answer with the recorded pIC50 for the sequence listed here: LALTALITPK [Peptide 9017.0228]
[reply] 5.76

[ask] Answer with the recorded pIC50 for the sequence listed here: LTSQIEHWK [Peptide 88.0439]
[reply] 5.05

[ask] Answer with the recorded pIC50 for the sequence listed here: NTNAGTDPR [Peptide 88.0372]
[reply] 5.15

[ask] Answer with the recorded pIC50 for the sequence listed here: SSCMGGMNR [Peptide 1556.59]
[reply] 7.27

[ask] Answer with the recorded pIC50 for the sequence listed here: KQLCDLLIR [Peptide 1513.14]
[reply] 7.62

[ask] Answer with the recorded pIC50 for the sequence listed here: SFFSRTWCR [Peptide 1587.42]
[reply] 8.66

[ask] Answer with the recorded pIC50 for the sequence listed here: FLGALKSFLK [Peptide 88.0148]
[reply] 6.49

[ask] Answer with the recorded pIC50 for the sequence listed here: WLIKRIRER [Peptide 9017.0122]
[reply] 7.07

[ask] Answer with the recorded pIC50 for the sequence listed here: ATTPIIHLK [Peptide 1589.18]
[reply] 7.31

[ask] Answer with the recorded pIC50 for the sequence listed here: KVSEFRWYR [Peptide 78.0281]
[reply] 8.00

[ask] Answer with the recorded pIC50 for the sequence listed here: HLFTYSWYK [Peptide 76.0164]
[reply] 7.46

[ask] Answer with the recorded pIC50 for the sequence listed here: TLWNPPTTAK [Peptide 1556.04]
[reply] 5.17

[ask] Answer with the recorded pIC50 for the sequence listed here: LQQLLFIHFR [Peptide 9017.0241]
[reply] 8.89

###

Molecular target: A31 (A*3101) (Homo sapiens, UniProt P04439, A270S/D185E/E176V/E277Q/F33T/G231S/G80R/H175R/I121M/I218V/I322F/K168Q/L300P/L318F/M331R/P217A/Q94H/R138Q/T323A/T345S/T97I/V358M)
Assay: biochemical
Format: binding
No end group written: not given here.
Readout name: IC50 (nM)
Write down the numeric answer in nM and omit the unit.

[ask] Answer with the recorded IC50 for the sequence listed here: RLIERIRER [Peptide 9017.0124]
[reply] 14

[ask] Answer with the recorded IC50 for the sequence listed here: TALIKPKKR [Peptide 9017.0102]
[reply] 1740

[ask] Answer with the recorded IC50 for the sequence listed here: SLARRHIAR [Peptide 9017.0067]
[reply] 1.5

[ask] Answer with the recorded IC50 for the sequence listed here: AQVLHLLKRK [Peptide 1587.52]
[reply] 18200

[ask] Answer with the recorded IC50 for the sequence listed here: ETQRQQFLK [Peptide 1589.32]
[reply] 3920

[ask] Answer with the recorded IC50 for the sequence listed here: HLFWYSWYK [Peptide 76.0168]
[reply] 28

[ask] Answer with the recorded IC50 for the sequence listed here: FVSFLSALK [Peptide 1587.37]
[reply] 4370

###

Target: A*0206 (Homo sapiens, UniProt P04439, D140Y/D185E/D98H/E176V/E277Q/F33Y/G131W/G231S/I119V/I121R/I166T/I218V/L300P/L318F/N151K/N90K/P208A/P217A/Q86G/Q94H/R138H/R169H/T345S)
Test: biochemical
Assay type: binding
pIC50: −log10 of the molar value. No end group written: not given here.
Outcome: Fulfilled for pIC50 of at least 7; Not fulfilled for anything lower.

[ask] Could you tell me if the measured pIC50 of VLKSDLVNEEA [Peptide 9013.0279] reaches 7 or more?
[reply] Not fulfilled

[ask] Could you tell me if the measured pIC50 of ALYSWFVNGT [Peptide 9013.0173] reaches 7 or more?
[reply] Not fulfilled

[ask] Could you tell me if the measured pIC50 of TQELFIPNV [Peptide 9013.0059] reaches 7 or more?
[reply] Fulfilled

[ask] Could you tell me if the measured pIC50 of VIKSDLVNEEV [Peptide 9013.0278] reaches 7 or more?
[reply] Not fulfilled

[ask] Could you tell me if the measured pIC50 of VLAEAMSAA [Peptide 1516.11] reaches 7 or more?
[reply] Fulfilled

[ask] Could you tell me if the measured pIC50 of RILQHLLFA [Peptide 1525.24] reaches 7 or more?
[reply] Fulfilled

[ask] Could you tell me if the measured pIC50 of VLFTCEPEA [Peptide 9013.0089] reaches 7 or more?
[reply] Not fulfilled

[ask] Could you tell me if the measured pIC50 of TLELFIPNITV [Peptide 9013.0299] reaches 7 or more?
[reply] Not fulfilled

[ask] Could you tell me if the measured pIC50 of QLSNGNRTV [Peptide 9013.0095] reaches 7 or more?
[reply] Not fulfilled

[ask] Could you tell me if the measured pIC50 of QLSNGNRTLTL [Peptide 9013.0292] reaches 7 or more?
[reply] Not fulfilled

###

Target: HLA-A3.2 (A*0301) (Homo sapiens)
Test: biochemical
Type: binding
No end group written: not given here.
Readout name: log10 of IC50 (log10 of the value in nM)
Recall that a logarithmic scale is used here: each number is log10 of IC50 in nM.

[ask] Answer with the recorded log10 of IC50 for the sequence listed here: ATNKMFCQLAK [Peptide 1556.47]
[reply] 1.46

[ask] Answer with the recorded log10 of IC50 for the sequence listed here: CTYSPALNR [Peptide 1556.42]
[reply] 1.43

[ask] Answer with the recorded log10 of IC50 for the sequence listed here: RTLTLLSVTK [Peptide 1556.13]
[reply] 1.36

[ask] Answer with the recorded log10 of IC50 for the sequence listed here: LQMALETLSK [Peptide 88.0214]
[reply] 2.75

[ask] Answer with the recorded log10 of IC50 for the sequence listed here: LQQLLFIHFR [Peptide 9017.0241]
[reply] 3.40

[ask] Answer with the recorded log10 of IC50 for the sequence listed here: KLVEDRWNK [Peptide 9017.0107]
[reply] 2.42

###

Molecular target: DRB1*1302 (Homo sapiens, UniProt P01903+P01911, A100E/A169T/K41T/L162R/M171V/P40S/Q125H/Q178H/Q39Y/Q99D/R42S/S66N/T262R/V115G/W38E/Y61H)
Sequence (P01903 26-254 limits assumed, other chains not shown): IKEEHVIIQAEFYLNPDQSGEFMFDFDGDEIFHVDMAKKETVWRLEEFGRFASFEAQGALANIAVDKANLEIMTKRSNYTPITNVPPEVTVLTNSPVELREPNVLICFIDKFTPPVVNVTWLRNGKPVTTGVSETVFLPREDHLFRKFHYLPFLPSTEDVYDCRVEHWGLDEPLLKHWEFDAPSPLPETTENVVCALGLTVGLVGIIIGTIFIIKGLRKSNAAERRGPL
Assay: biochemical
Type: binding
Readout name: IC50 (nM)
Write down the numeric answer in nM and omit the unit.

[ask] Answer with the recorded IC50 for the molecule listed here: CC(C)C[C@H](NC(=O)[C@@H](NC(=O)[C@H](Cc1c[nH]c2ccccc12)NC(=O)[C@H](CC(=O)O)NC(=O)[C@H](CCC(=O)O)NC(=O)[C@@H](NC(=O)[C@H](CCCCN)NC(=O)[C@H](Cc1ccc(O)cc1)NC(=O)[C@H](CCCNC(=N)N)NC(=O)[C@H](CO)NC(=O)[C@@H](N)CCC(N)=O)[C@@H](C)O)[C@@H](C)O)C(=O)N[C@@H](CCC(N)=O)C(=O)N[C@@H](CC(=O)O)C(=O)N[C@H](C(=O)N[C@@H](CS)C(=O)O)[C@@H](C)O [Peptide 90.0179]
[reply] 71

###

Would you kindly list IC50 for each of these sequences?
Molecular target: A*3301 (Homo sapiens, UniProt P04439, A270S/D185E/E176V/E277Q/E87N/F33T/G231S/H175R/I121M/I218V/I322F/K168Q/K210R/L300P/L318F/M331R/P217A/Q86R/Q94H/R138Q/T323A/T345S/T97I/V358M/Y195H)
Assay: biochemical
Assay type: binding
No end group written: not given here.

[ask] Answer with the recorded IC50 for the sequence listed here: KISEYRHYQY [Peptide 1571.14]
[reply] > 20000 nM

[ask] Answer with the recorded IC50 for the sequence listed here: ITYSDETQR [Peptide 88.0429]
[reply] 1350 nM

[ask] Answer with the recorded IC50 for the sequence listed here: TVSATQIVR [Peptide 1589.26]
[reply] 645 nM

[ask] Answer with the recorded IC50 for the sequence listed here: VVVKSPNHVK [Peptide 9012.0255]
[reply] > 20000 nM

[ask] Answer with the recorded IC50 for the sequence listed here: VTVQYDNDKK [Peptide 88.0216]
[reply] > 20000 nM

[ask] Answer with the recorded IC50 for the sequence listed here: GQVDYYGLYY [Peptide 1589.02]
[reply] > 20000 nM

[ask] Answer with the recorded IC50 for the sequence listed here: EQMLIQPPK [Peptide 88.0378]
[reply] 831 nM

[ask] Answer with the recorded IC50 for the sequence listed here: LFYSKVRKYK [Peptide 88.0098]
[reply] 30 nM

[ask] Answer with the recorded IC50 for the sequence listed here: MALESILRK [Peptide 9012.0214]
[reply] 5480 nM

[ask] Answer with the recorded IC50 for the sequence listed here: VVPAYNISK [Peptide 88.0397]
[reply] > 20000 nM

[ask] Answer with the recorded IC50 for the sequence listed here: ALTALIKPKK [Peptide 9017.0229]
[reply] > 20000 nM

[ask] Answer with the recorded IC50 for the sequence listed here: KLFLQGTPK [Peptide 88.0381]
[reply] > 20000 nM

[ask] Answer with the recorded IC50 for the sequence listed here: WLIKRIRER [Peptide 9017.0122]
[reply] 20 nM

[ask] Answer with the recorded IC50 for the sequence listed here: FTDLTIVYR [Peptide 78.0313]
[reply] 585 nM
